Reference source: paper PMC10004777

Viability of Cells (% of Control) overview
- Test system: HepG2 cells
- measurement.description: Cell viability (MTT) assay, HepG2
- Type: cell-based
- measurement.conditions: 50 µM

Consider the worked cases shown below.
smiles.representation: C[C@H](CC(=O)C[C@@H](C)[C@H]1C[C@H](O)[C@@]2(C)C3=C(C(=O)C[C@]12C)[C@@]1(C)CCC(=O)C(C)(C)[C@@H]1C[C@@H]3O)C(=O)Nc1ccc(Cl)cc1
recorded.value: 72.0 ± 1.9 % of Control
//
smiles.representation: C[C@H](CC(=O)C[C@@H](C)[C@H]1C[C@H](O)[C@@]2(C)C3=C(C(=O)C[C@]12C)[C@@]1(C)CCC(=O)C(C)(C)[C@@H]1C[C@@H]3O)C(=O)NC1Cc2ccccc2C1
recorded.value: 52.4 ± 2.1 % of Control
//
smiles.representation: Cc1ccc(NC(=O)[C@H](C)CC(=O)C[C@@H](C)[C@H]2C[C@H](O)[C@@]3(C)C4=C(C(=O)C[C@]23C)[C@@]2(C)CCC(=O)C(C)(C)[C@@H]2C[C@@H]4O)cc1
recorded.value: 76.3 ± 1.1 % of Control

Using the record for C[C@H](CC(=O)C[C@@H](C)[C@H]1C[C@H](O)[C@@]2(C)C3=C(C(=O)C[C@]12C)[C@@]1(C)CCC(=O)C(C)(C)[C@@H]1C[C@@H]3O)C(=O)NCCc1ccc(Cl)cc1 , report its Viability of Cells (% of Control).
25.6 ± 0.8 % of Control

---

- Test system: HepG2 cells
- measurement.description: Cell viability (MTT) assay, HepG2
- Type: cell-based
- measurement.conditions: 25 µM
quantity: Viability of Cells (% of Control)

smiles.representation: C[C@H](CC(=O)C[C@@H](C)[C@H]1C[C@H](O)[C@@]2(C)C3=C(C(=O)C[C@]12C)[C@@]1(C)CCC(=O)C(C)(C)[C@@H]1C[C@@H]3O)C(=O)NCc1cc(Cl)cc(Cl)c1
experimental.target: HepG2 cells
Viability of Cells (% of Control): 54.2 ± 2.0 % of Control

smiles.representation: C[C@H](CC(=O)C[C@@H](C)[C@H]1C[C@H](O)[C@@]2(C)C3=C(C(=O)C[C@]12C)[C@@]1(C)CCC(=O)C(C)(C)[C@@H]1C[C@@H]3O)C(=O)NCc1ccc(Cl)cc1
experimental.target: HepG2 cells
Viability of Cells (% of Control): 73.8 ± 1.2 % of Control

smiles.representation: C[C@H](CC(=O)C[C@@H](C)[C@H]1C[C@H](O)[C@@]2(C)C3=C(C(=O)C[C@]12C)[C@@]1(C)CCC(=O)C(C)(C)[C@@H]1C[C@@H]3O)C(=O)Nc1ccc(Cl)cc1
experimental.target: HepG2 cells
Viability of Cells (% of Control): 87.7 ± 1.9 % of Control

Record C[C@H](CC(=O)C[C@@H](C)[C@H]1C[C@H](O)[C@@]2(C)C3=C(C(=O)C[C@]12C)[C@@]1(C)CCC(=O)C(C)(C)[C@@H]1C[C@@H]3O)C(=O)NCCc1ccc(F)cc1 : what is its Viability of Cells (% of Control) with HepG2 cells?
78.5 ± 3.0 % of Control

Record C[C@H](CC(=O)C[C@@H](C)[C@H]1C[C@H](O)[C@@]2(C)C3=C(C(=O)C[C@]12C)[C@@]1(C)CCC(=O)C(C)(C)[C@@H]1C[C@@H]3O)C(=O)NCCc1ccc(Cl)cc1 : what is its Viability of Cells (% of Control) with HepG2 cells?
29.1 ± 0.4 % of Control

Request - read-out Viability of Cells (% of Control) | tested on HepG2 cells | molecule CCN1CCN(C(=O)[C@H](C)CC(=O)C[C@@H](C)[C@H]2C[C@H](O)[C@@]3(C)C4=C(C(=O)C[C@]23C)[C@@]2(C)CCC(=O)C(C)(C)[C@@H]2C[C@@H]4O)CC1
95.6 ± 1.9 % of Control

HepG2 cells / Viability of Cells (% of Control) / C[C@H](CC(=O)C[C@@H](C)[C@H]1C[C@H](O)[C@@]2(C)C3=C(C(=O)C[C@]12C)[C@@]1(C)CCC(=O)C(C)(C)[C@@H]1C[C@@H]3O)C(=O)N1CCN(C)CC1 : value?
104.4 ± 2.0 % of Control

Test system HepG2 cells; read-out Viability of Cells (% of Control); what value for C[C@H](CC(=O)C[C@@H](C)[C@H]1C[C@H](O)[C@@]2(C)C3=C(C(=O)C[C@]12C)[C@@]1(C)CCC(=O)C(C)(C)[C@@H]1C[C@@H]3O)C(=O)N1CCN(c2ccccc2)CC1 ?
77.1 ± 2.1 % of Control

Record C[C@H](CC(=O)C[C@@H](C)[C@H]1C[C@H](O)[C@@]2(C)C3=C(C(=O)C[C@]12C)[C@@]1(C)CCC(=O)C(C)(C)[C@@H]1C[C@@H]3O)C(=O)NCc1ccc(F)cc1 : what is its Viability of Cells (% of Control) with HepG2 cells?
84.0 ± 0.8 % of Control

Lookup: Viability of Cells (% of Control) / HepG2 cells / Cc1ccc(CCNC(=O)[C@H](C)CC(=O)C[C@@H](C)[C@H]2C[C@H](O)[C@@]3(C)C4=C(C(=O)C[C@]23C)[C@@]2(C)CCC(=O)C(C)(C)[C@@H]2C[C@@H]4O)cc1
57.9 ± 0.5 % of Control
